FYI, the data here is from ChEMBL document CHEMBL6092167.

- System: Escherichia coli
- PROCEDURE_TEXT: Antibacterial activity against Escherichia coli ATCC 25922 incubated for 18 to 24 hrs by broth microdilution method
- Format: functional
- CONDITION_DETAILS: time 18-24 hrs
Non-standard residues stand in square brackets, D forms with d. Residues, ends and D or L forms follow the SMILES beside them. Bip = N[C@@H](Cc1ccc(-c2ccccc2)cc1)C(=O)O
QUANTITY: MIC (µM)
Numbers only, in µM.

| COMPOUND | MIC (µM) |
| --- | --- |
| CC(C)C[C@H](NC(=O)[C@H](CC(C)C)NC(=O)[C@H](Cc1ccc(O)cc1)NC(=O)[C@H](CCCCN)NC(=O)[C@H](CC(C)C)NC(=O)[C@H](CCCNC(=N)N)NC(=O)[C@H](CCCCN)NC(=O)[C@H](Cc1ccc(-c2ccccc2)cc1)NC(=O)[C@H](CC(C)C)NC(=O)CN)C(N)=O (H-GL[Bip]KRLKYLL-NH2) | 8 |

# evaluate next
Incoming: MIC for CC(C)C[C@H](NC(=O)[C@H](CC(C)C)NC(=O)[C@H](Cc1ccc(O)cc1)NC(=O)[C@H](CCCCN)NC(=O)[C@H](Cc1ccc(-c2ccccc2)cc1)NC(=O)[C@H](CCCNC(=N)N)NC(=O)[C@H](CCCCN)NC(=O)[C@H](CC(C)C)NC(=O)[C@H](CC(C)C)NC(=O)CN)C(N)=O (H-GLLKR[Bip]KYLL-NH2) ?
Outgoing: 8
